Biological target: N-terminal Xaa-Pro-Lys N-methyltransferase 1 (Homo sapiens); also: nearly all actives have a fitted effect of over 80% in size
Experiment: qHTS Assay for Inhibitors of N-terminal methyltransferase 1 (NTMT1): ThioGlo3 Assay Confirmatory Screen, Round 1.
Details: NTMT1 SAHH-coupled ThioGlo3 fluorescence, 30 min; series mostly up to 56.8 µM
From the text: Assay Submitter (PI): Rong Huang Ph.D, Purdue University, West Lafayette, IN 47907 The N-terminal methytransferase 1 is the first methyltransferase that methylates protein alpha-N-amines and plays an important role in regulating cell mitosis, chromatin interactions and DNA repair. […] To address this unmet need, a panel of assay is created and established to enable quantitative high-throughput screening (qHTS) for novel, potent, and selective small molecule NTMT1 inhibitors. […]
Inconclusive results are not listed. Active and inactive are the calls of the source. Calls follow the shape of the dose curve; as a rule, active = well fitted inhibition curve with a large enough effect; inconclusive = small, poorly fitted or top-dose-only effect; inactive = no such curve, though single readings can be large or run the other way.
Mark one answer only. Choices: active, inactive

Here's what some known entries look like.
molecule	study-target	class-label
OC[C@H]1O[C@@H](n2cnc3cncnc32)[C@H](O)[C@@H]1O	N-terminal Xaa-Pro-Lys N-methyltransferase 1 (Homo sapiens)	active
CO[C@@H]1[C@@H]2OP(=O)(O)OC[C@H]2O[C@H]1n1c(Sc2ccc(Cl)cc2)nc2c(N)ncnc21	N-terminal Xaa-Pro-Lys N-methyltransferase 1 (Homo sapiens)	inactive
Nc1ncnc2c1nc(Br)n2C1OC(CO)C(O)C1O (stereo unspecified)	N-terminal Xaa-Pro-Lys N-methyltransferase 1 (Homo sapiens)	inactive

Call for entry COc1cc2nc(N3CCN(C)CC3)nc(NC3CC3)c2cc1OC :
active

Call for entry C=C1O[C@@](CO)(n2cnc3c(N)ncnc32)[C@H](O)[C@@H]1O :
inactive

Call for entry COc1cc2c(NC3CCN(C)CC3)nc(N3CCCN(C)CC3)nc2cc1OCCCN1CCCC1 :
active

Call for entry COc1cc2c(NC3CCN(C(C)C)CC3)nc(N3CCCCC3)nc2cc1OCCCN1CCCC1 :
active

Call for entry CC(C)=CCNc1ncnc2c1ncn2[C@@H]1O[C@H](CO)[C@@H](O)[C@H]1O :
active

Call for entry Nc1ncnc2c1ncn2C1CC(O)C(CO)O1 (stereo unspecified) :
inactive

Call for entry COc1cc2nc(N3CCN(C)CC3)nc(NCCC3CC3)c2cc1OC :
active

Call for entry Nc1ncnc2c1ncn2C1OC(COP(=O)(O)O)C(O)C1O (stereo unspecified) :
inactive

Call for entry Cn1cnc2c(ncn2[C@@H]2O[C@H](CO)[C@@H](O)[C@H]2O)c1=N :
inactive

Call for entry COc1cc2nc(NC3CCN(C)CC3)nc(NC3CCN(C)CC3)c2cc1OC :
active

Call for entry COc1cc2nc(N3CCN(C)CC3)nc(NCCCN(C)C)c2cc1OC :
active

Call for entry Nc1nc(Cl)nc2c1ncn2[C@@H]1O[C@H](CO)[C@H](O)[C@H]1O :
inactive

Call for entry COc1cc2c(NC3CCN(C4CCCCC4)CC3)nc(N3CCCCC3)nc2cc1OCCCN1CCCCC1 :
active

Call for entry COc1cc2nc(N3CCN(C(C)=O)CC3)nc(NC3CC3)c2cc1OC :
active

Call for entry OC[C@@H]1O[C@@H](n2cnc3c(NCc4ccco4)ncnc32)[C@H](O)[C@H]1O :
active

Call for entry COc1cc2c(NC3CCN(CC4CCCCC4)CC3)nc(N3CCCCC3)nc2cc1OCCOCCN(C)C :
active

---

Biological target: N-terminal Xaa-Pro-Lys N-methyltransferase 1 (Homo sapiens) (UniProt Q9BV86); also: nearly all actives have a fitted effect of over 80% in size
Sequence (Q9BV86 whole entry, looked up): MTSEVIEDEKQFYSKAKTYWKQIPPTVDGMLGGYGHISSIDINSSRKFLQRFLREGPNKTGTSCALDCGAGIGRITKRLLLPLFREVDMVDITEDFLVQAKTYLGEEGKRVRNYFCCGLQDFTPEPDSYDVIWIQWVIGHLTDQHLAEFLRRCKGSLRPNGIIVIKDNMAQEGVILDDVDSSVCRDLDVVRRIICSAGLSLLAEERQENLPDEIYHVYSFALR
Assay: qHTS Assay for Inhibitors of N-terminal methyltransferase 1 (NTMT1): ThioGlo3 Assay Confirmatory Screen, Round 1.
Settings: NTMT1 SAHH-coupled ThioGlo3 fluorescence, 30 min; series mostly up to 56.8 µM
Records with an inconclusive call do not appear. The source made the active and inactive calls. Calls come from the whole dose curve; as a rule, active = well fitted inhibition curve with a large enough effect; inconclusive = small, poorly fitted or top-dose-only effect; inactive = no such curve, though single readings can be large or run the other way.
Mark one answer only. Choices: active, inactive

compound	class-label
COc1cc2c(NC3CCN(C(C)C)CC3)nc(N3CCCN(CC4CCCCC4)CC3)nc2cc1OCCCN1CCCCC1	active
COc1cc2c(NC3CCN(C)CC3)nc(N3CCCN(C)CC3)nc2cc1OCCOCCN(C)C	active
CC(C)(COP(=O)(O)OP(=O)(O)OC[C@H]1O[C@@H](n2cnc3c(N)ncnc32)[C@H](O)[C@@H]1OP(=O)(O)O)[C@H](O)C(=O)NCCC(=O)NCCS	inactive
CCN(CC)CCCOc1cc2nc(N3CCCN(C)CC3)nc(NC3CCN(C)CC3)c2cc1OC	active
Nc1ncnc2c1ncn2[C@@H]1O[C@H](C(=O)NC2CC2)[C@@H](O)[C@H]1O	inactive
COc1cc2c(NC3CCN(C)CC3)nc(N3CCCCC3)nc2cc1OCCOCCN(C)C	active
COc1cc2c(NC3CCN(C(C)C)CC3)nc(N3CCCCCC3)nc2cc1OCCCN1CCCC1	active
NC(=O)c1ccc[n+]([C@@H]2O[C@H](COP(=O)([O-])OP(=O)(O)OC[C@H]3O[C@@H](n4cnc5c(N)ncnc54)[C@H](O)[C@@H]3O)[C@@H](O)[C@H]2O)c1	inactive
C[C@H](Cc1ccccc1)Nc1ncnc2c1ncn2[C@@H]1O[C@H](CO)[C@@H](O)[C@H]1O	inactive
COc1cc2c(NC3CCN(CC4CCCCC4)CC3)nc(N3CCCCC3)nc2cc1OCCCN1CCCCC1	active

Call for entry COc1cc2c(NC3CCN(C)CC3)nc(N3CCCN(C)CC3)nc2cc1OCCN(C)CCN(C)C :
active

Call for entry COc1cc2nc(NCCN(C)C)nc(NC3CC3)c2cc1OC :
active

Call for entry COc1cc2nc(N3CCOCC3)nc(NC(C)C)c2cc1OC :
active

Call for entry COc1cc2nc(N3CCN(C)CC3)nc(NC3CCN(C)CC3)c2cc1OC :
active

Call for entry CNc1ncnc2c1ncn2[C@H]1C[C@H](O)[C@@H](CO)O1 :
inactive

Call for entry COc1cc2c(NC3CCN(C(C)C)CC3)nc(N3CCCN(C)CC3)nc2cc1OCCOCCN1CCCC1 :
active

Call for entry Nc1ncnc2c1ncn2[C@H]1C[C@H](O)[C@@H](CO)O1 :
inactive

Call for entry Nc1ncnc2c1[nH]c(=O)n2C1OC(CO)C(O)C1O (stereo not drawn) :
inactive

---

Target: N-terminal Xaa-Pro-Lys N-methyltransferase 1 (Homo sapiens) (UniProt Q9BV86); also: nearly all actives have a fitted effect of over 80% in size
Assay: qHTS Assay for Inhibitors of N-terminal methyltransferase 1 (NTMT1): ThioGlo3 Assay Confirmatory Screen, Round 1.
Settings: NTMT1 SAHH-coupled ThioGlo3 fluorescence, 30 min; series mostly up to 56.8 µM
Records with an inconclusive call do not appear. Calls of active or inactive are those of the source. Calls come from the whole dose curve; as a rule, active = well fitted inhibition curve with a large enough effect; inconclusive = small, poorly fitted or top-dose-only effect; inactive = no such curve, though single readings can be large or run the other way.
Mark one answer only. Choices: active, inactive

Call for entry COc1cc2nc(NC3CCN(C)CC3)nc(N3CCCN(C)CC3)c2cc1OC :
active

Call for entry Nc1ncnc2c1ncn2[C@@H]1O[C@H](CO)C(O)[C@H]1O (stereo not given in full) :
active

Call for entry COc1cc2nc(N3CCN(C)CC3)nc(NC3CCCCC3)c2cc1OC :
active

---

Target: N-terminal Xaa-Pro-Lys N-methyltransferase 1 (Homo sapiens) (UniProt Q9BV86); also: nearly all actives have a fitted effect of over 80% in size
Test: qHTS Assay for Inhibitors of N-terminal methyltransferase 1 (NTMT1): ThioGlo3 Assay Confirmatory Screen, Round 1.
Details: NTMT1 SAHH-coupled ThioGlo3 fluorescence, 30 min; series mostly up to 56.8 µM
Records with an inconclusive call do not appear. Activity calls are given as the source filed them. Calls come from the whole dose curve; as a rule, active = well fitted inhibition curve with a large enough effect; inconclusive = small, poorly fitted or top-dose-only effect; inactive = no such curve, though single readings can be large or run the other way.
Mark one answer only. Choices: T (active), F (inactive)

Here's what some known entries look like.
molecule	study-target	class-label
CCN(CC)c1nc(NC2CCN(C)CC2)c2cc(OC)c(OC)cc2n1	N-terminal Xaa-Pro-Lys N-methyltransferase 1 (Homo sapiens) (UniProt Q9BV86)	T
Nc1nc2c(ncn2[C@@H]2O[C@H](CO)[C@@H](O)[C@H]2O)c(=O)[nH]1	N-terminal Xaa-Pro-Lys N-methyltransferase 1 (Homo sapiens) (UniProt Q9BV86)	F
CSc1ncnc2c1ncn2C1OC(CO)C(O)C1O (stereo not given)	N-terminal Xaa-Pro-Lys N-methyltransferase 1 (Homo sapiens) (UniProt Q9BV86)	F

Call for entry Nc1nc(Cl)nc2c1ncn2[C@@H]1O[C@H](COP(=O)(O)OP(=O)(O)OP(=O)(O)O)C(O)[C@H]1O (stereo not given in full) :
T

Call for entry Nc1ncnc2c1nc(Br)n2C1CC(O)C(CO)O1 (stereo not given) :
F

Call for entry Nc1nc(=S)c2ncn([C@@H]3O[C@H](CO)[C@@H](O)[C@H]3O)c2[nH]1 :
T

Call for entry Nc1ncnc2c1ncn2[C@H]1O[C@H](CO)[C@@H](O)[C@@H]1O :
F

Call for entry Nc1ncnc2c1ncn2[C@@H]1O[C@H](COP(=O)(O)OP(=O)(O)OP(=O)(O)OP(=O)(O)OC[C@@H]2O[C@H](n3cnc4c(N)ncnc43)[C@@H](O)[C@H]2O)[C@@H](O)[C@H]1O :
F

Call for entry COc1cc2nc(N3CCOCC3)nc(NC3CCN(Cc4ccccc4)CC3)c2cc1OC :
T

Call for entry COc1cc2c(NC3CCN(C)CC3)nc(N3CCN(C)CC3)nc2cc1OCCCN(C)C :
T
